test system: Enterococcus faecalis; assay: Antibacterial activity against Enterococcus faecalis CMCC 29212 measured after 24 hrs by ELISA; assay type: functional; conditions: CMCC 29212, 24 h
Recorded metric: MIC (µM)

Please review the following examples before continuing.
> print(dat)
                         compound.structure          tested.system  test.value
1  N=C(N)N/N=C\c1cn(S(=O)(=O)c2ccccc2)c2ccccc12  Enterococcus faecalis        46.9
2  Cc1ccc(S(=O)(=O)n2cc(/C=N\NC(=N)N)c3cc(Br)ccc32)cc1  Enterococcus faecalis        9.24

1 = CC/C(=N/NC(=N)N)c1cn(S(=O)(=O)c2ccc(C)cc2)c2ccccc12
2 = C/C(=N/NC(N)=O)c1cn(S(=O)(=O)c2ccccc2)c2ccc(Br)cc12
3 = CC/C(=N/NC(N)=S)c1cn(S(=O)(=O)c2ccccc2)c2ccccc12
**Query** Ascending by MIC, please. To answer, arrange all of the labels according to the requested order.
**Result** 1, 2, 3

# credit: ChEMBL document CHEMBL4400518
